Target: 1-deoxy-D-xylulose-5-phosphate synthase (Haemophilus influenzae (strain 86-028NP), UniProt Q4QKG6)
Sequence (Q4QKG6 whole entry): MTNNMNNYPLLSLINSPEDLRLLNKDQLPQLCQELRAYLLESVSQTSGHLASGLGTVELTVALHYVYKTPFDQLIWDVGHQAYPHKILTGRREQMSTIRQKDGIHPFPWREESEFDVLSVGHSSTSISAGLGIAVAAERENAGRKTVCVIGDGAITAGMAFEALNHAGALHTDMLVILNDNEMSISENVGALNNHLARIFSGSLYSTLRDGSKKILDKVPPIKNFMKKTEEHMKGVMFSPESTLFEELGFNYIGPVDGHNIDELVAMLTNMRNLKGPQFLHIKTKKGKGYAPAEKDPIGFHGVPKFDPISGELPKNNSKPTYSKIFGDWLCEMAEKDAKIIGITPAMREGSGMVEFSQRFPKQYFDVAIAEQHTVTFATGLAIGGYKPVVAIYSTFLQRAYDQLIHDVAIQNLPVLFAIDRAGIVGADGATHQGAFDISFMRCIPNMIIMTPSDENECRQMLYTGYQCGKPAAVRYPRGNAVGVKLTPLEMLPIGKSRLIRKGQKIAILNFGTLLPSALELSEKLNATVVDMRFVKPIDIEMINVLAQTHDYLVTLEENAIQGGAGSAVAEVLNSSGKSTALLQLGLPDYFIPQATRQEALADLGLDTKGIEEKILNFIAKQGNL
Test: Inhibition of Haemophilus influenzae recombinant DXPS
pIC50: −log10 of the molar value.
EXPERIMENTAL_READOUT: pIC50

- MOLECULE: "CC1(C)C(=O)ON(Cc2ccccc2Cl)C1=O [KETOCLOMAZONE]"
  MEASURED_NUMBER: 4.55
